Exercise: for every item that follows, state its recorded Tumor growth inhibition rate (TGI %).
Tested on: HCT-116 human colon cancer xenografts
Assay: Tumor growth inhibition of HCT-116 human colon cancer xenografts in nude mice
Assay type: in vivo, Balb/c nude mice
Conditions: Day 16; single IP injection (QD×1); D1 and D2 400 mg/kg, D3 350 mg/kg, D4 300 mg/kg
One number for each entry, in %.

compound	Tumor growth inhibition rate (TGI %)
CCCCOC(=O)Nc1ccn(C2OC(COC(=O)CCCC(=O)OC[C@H]3O[C@@H](n4ccc(NC(=O)OCCCC)nc4=O)C(F)(F)[C@@H]3OC(=O)OCCCC)C(OC(=O)OCCCC)C2(F)F)c(=O)n1 (stereo in doubt) [Compound D1]	72.62

Field: Tumor growth inhibition rate (TGI %). Fill in for each record below.
1. CCCCOC(=O)Nc1ccn(C2OC(COC(=O)CCC(=O)OC[C@H]3O[C@@H](n4ccc(NC(=O)OCc5ccccc5)nc4=O)C(F)(F)[C@@H]3O)C(O)C2(F)F)c(=O)n1 (stereo in doubt) [Compound D4]
2. O=C(CCCC(=O)OC[C@H]1O[C@@H](n2ccc(NC(=O)OCc3ccccc3)nc2=O)C(F)(F)[C@@H]1O)OC[C@H]1O[C@@H](n2ccc(NC(=O)OCc3ccccc3)nc2=O)C(F)(F)[C@@H]1O [Compound D3]

A.
[92.12, 95.58]

Q. Could you tell me which Tumor growth inhibition rate (TGI %) is on file for CCCCOC(=O)Nc1ccn([C@H]2O[C@@H](COC(=O)CCC(=O)OC[C@H]3O[C@@H](n4ccc(NC(=O)OCCCC)nc4=O)C(F)(F)[C@@H]3O)[C@H](O)C2(F)F)c(=O)n1 (stereo in doubt) [Compound D2] ?
A. 90.63

###

Test system: HCT-116 human colon cancer xenografts
Assay: Tumor growth inhibition of HCT-116 human colon cancer xenografts in nude mice
Assay type: in vivo, Balb/c nude mice
Settings: Day 16; single IP injection (QD×1); D1 and D2 400 mg/kg, D3 350 mg/kg, D4 300 mg/kg; Mean±SEM
Marks after values point to notes of the source that are not given here.
parameter_measured: Tumor volume of HCT-116 human colon cancer xenografts

Here is how some compounds turned out for Tumor volume of HCT-116 human colon cancer xenografts.
compound	tested_system	measured
CCCCOC(=O)Nc1ccn(C2OC(COC(=O)CCC(=O)OC[C@H]3O[C@@H](n4ccc(NC(=O)OCc5ccccc5)nc4=O)C(F)(F)[C@@H]3O)C(O)C2(F)F)c(=O)n1 (stereo in doubt)	HCT-116 human colon cancer xenografts	142.77 ± 49.34** mm^3
CCCCOC(=O)Nc1ccn([C@H]2O[C@@H](COC(=O)CCC(=O)OC[C@H]3O[C@@H](n4ccc(NC(=O)OCCCC)nc4=O)C(F)(F)[C@@H]3O)[C@H](O)C2(F)F)c(=O)n1 (stereo in doubt) [Compound D2]	HCT-116 human colon cancer xenografts	169.73 ± 88.15** mm^3
CCCCOC(=O)Nc1ccn(C2OC(COC(=O)CCCC(=O)OC[C@H]3O[C@@H](n4ccc(NC(=O)OCCCC)nc4=O)C(F)(F)[C@@H]3OC(=O)OCCCC)C(OC(=O)OCCCC)C2(F)F)c(=O)n1 (stereo in doubt) [Compound D1]	HCT-116 human colon cancer xenografts	495.95 ± 408.8** mm^3

# evaluate next
Q. Could you tell me which Tumor volume of HCT-116 human colon cancer xenografts is on file for `O=C(CCCC(=O)OC[C@H]1O[C@@H](n2ccc(NC(=O)OCc3ccccc3)nc2=O)C(F)(F)[C@@H]1O)OC[C@H]1O[C@@H](n2ccc(NC(=O)OCc3ccccc3)nc2=O)C(F)(F)[C@@H]1O` ?
A. 80.10 ± 11.07** mm^3

###

Assay: Body weight / toxicity of a single intraperitoneal injection in HCT-116 colon tumor-bearing nude mice
Conditions: Day 7; single IP injection (QD×1); D1 and D2 400 mg/kg, D3 350 mg/kg, D4 300 mg/kg; Mean±SEM
Exercise: for every item that follows, state its recorded Average weight of the animals.
Numbers only, in g.

Here is how some molecules turned out for Average weight of the animals.
molecule	parameter_measured	measured
CCCCOC(=O)Nc1ccn([C@H]2O[C@@H](COC(=O)CCC(=O)OC[C@H]3O[C@@H](n4ccc(NC(=O)OCCCC)nc4=O)C(F)(F)[C@@H]3O)[C@H](O)C2(F)F)c(=O)n1 (stereo in doubt) [Compound D2]	Average weight of the animals	18.48
CCCCOC(=O)Nc1ccn(C2OC(COC(=O)CCC(=O)OC[C@H]3O[C@@H](n4ccc(NC(=O)OCc5ccccc5)nc4=O)C(F)(F)[C@@H]3O)C(O)C2(F)F)c(=O)n1 (stereo in doubt)	Average weight of the animals	19.85
CCCCOC(=O)Nc1ccn(C2OC(COC(=O)CCCC(=O)OC[C@H]3O[C@@H](n4ccc(NC(=O)OCCCC)nc4=O)C(F)(F)[C@@H]3OC(=O)OCCCC)C(OC(=O)OCCCC)C2(F)F)c(=O)n1 (stereo in doubt) [Compound D1]	Average weight of the animals	19.80

# evaluate next
Q. Could you tell me which Average weight of the animals is on file for `O=C(CCCC(=O)OC[C@H]1O[C@@H](n2ccc(NC(=O)OCc3ccccc3)nc2=O)C(F)(F)[C@@H]1O)OC[C@H]1O[C@@H](n2ccc(NC(=O)OCc3ccccc3)nc2=O)C(F)(F)[C@@H]1O` ?
A. 19.51

###

Test system: HCT-116 human colon cancer cells
Assay: Colony formation inhibition test on HCT-116 human colon cancer cells
Type: cell-based
Settings: 450 nM; 72 h treatment, then 7-10 days
parameter_measured: Number of cell clones on HCT-116, mean

Here is how some compounds turned out for Number of cell clones on HCT-116, mean.
compound	Number of cell clones on HCT-116, mean
CCCCOC(=O)Nc1ccn([C@H]2O[C@@H](COC(=O)CCC(=O)OC[C@H]3O[C@@H](n4ccc(NC(=O)OCCCC)nc4=O)C(F)(F)[C@@H]3O)[C@H](O)C2(F)F)c(=O)n1 (stereo in doubt) [Compound D2]	36
CCCCOC(=O)Nc1ccn(C2OC(COC(=O)CCCC(=O)OC[C@H]3O[C@@H](n4ccc(NC(=O)OCCCC)nc4=O)C(F)(F)[C@@H]3OC(=O)OCCCC)C(OC(=O)OCCCC)C2(F)F)c(=O)n1 (stereo in doubt) [Compound D1]	52
CCCCOC(=O)Nc1ccn(C2OC(COC(=O)CCC(=O)OC[C@H]3O[C@@H](n4ccc(NC(=O)OCc5ccccc5)nc4=O)C(F)(F)[C@@H]3O)C(O)C2(F)F)c(=O)n1 (stereo in doubt)	11

# evaluate next
Q. Could you tell me which Number of cell clones on HCT-116, mean is on file for `O=C(CCCC(=O)OC[C@H]1O[C@@H](n2ccc(NC(=O)OCc3ccccc3)nc2=O)C(F)(F)[C@@H]1O)OC[C@H]1O[C@@H](n2ccc(NC(=O)OCc3ccccc3)nc2=O)C(F)(F)[C@@H]1O` ?
A. 4

###

Test: Body weight / toxicity of a single intraperitoneal injection in HCT-116 colon tumor-bearing nude mice
Conditions: Day 1; single IP injection (QD×1); D1 and D2 400 mg/kg, D3 350 mg/kg, D4 300 mg/kg
parameter_measured: Average rate of weight change of the animals (%)
Give bare numbers, in %.

Here is how some molecules turned out for Average rate of weight change of the animals.
molecule	measured
O=C(CCCC(=O)OC[C@H]1O[C@@H](n2ccc(NC(=O)OCc3ccccc3)nc2=O)C(F)(F)[C@@H]1O)OC[C@H]1O[C@@H](n2ccc(NC(=O)OCc3ccccc3)nc2=O)C(F)(F)[C@@H]1O [Compound D3]	−3.59
CCCCOC(=O)Nc1ccn([C@H]2O[C@@H](COC(=O)CCC(=O)OC[C@H]3O[C@@H](n4ccc(NC(=O)OCCCC)nc4=O)C(F)(F)[C@@H]3O)[C@H](O)C2(F)F)c(=O)n1 (stereo in doubt) [Compound D2]	−0.08
CCCCOC(=O)Nc1ccn(C2OC(COC(=O)CCC(=O)OC[C@H]3O[C@@H](n4ccc(NC(=O)OCc5ccccc5)nc4=O)C(F)(F)[C@@H]3O)C(O)C2(F)F)c(=O)n1 (stereo in doubt) [Compound D4]	−1.17

Q. Could you tell me which Average rate of weight change of the animals is on file for CCCCOC(=O)Nc1ccn(C2OC(COC(=O)CCCC(=O)OC[C@H]3O[C@@H](n4ccc(NC(=O)OCCCC)nc4=O)C(F)(F)[C@@H]3OC(=O)OCCCC)C(OC(=O)OCCCC)C2(F)F)c(=O)n1 (stereo in doubt) [Compound D1] ?
A. −2.55

###

System: HCT-116 human colon cancer xenografts
Assay: Tumor growth inhibition of HCT-116 human colon cancer xenografts in nude mice
Assay type: in vivo, Balb/c nude mice
Conditions: Day 21; single IP injection (QD×1); D1 and D2 400 mg/kg, D3 350 mg/kg, D4 300 mg/kg
parameter_measured: Relative tumor proliferation rate (T/C %)
Answers are plain numbers, in %.

compound	measured
CCCCOC(=O)Nc1ccn(C2OC(COC(=O)CCCC(=O)OC[C@H]3O[C@@H](n4ccc(NC(=O)OCCCC)nc4=O)C(F)(F)[C@@H]3OC(=O)OCCCC)C(OC(=O)OCCCC)C2(F)F)c(=O)n1 (stereo in doubt) [Compound D1]	138.14
O=C(CCCC(=O)OC[C@H]1O[C@@H](n2ccc(NC(=O)OCc3ccccc3)nc2=O)C(F)(F)[C@@H]1O)OC[C@H]1O[C@@H](n2ccc(NC(=O)OCc3ccccc3)nc2=O)C(F)(F)[C@@H]1O	23.70
CCCCOC(=O)Nc1ccn(C2OC(COC(=O)CCC(=O)OC[C@H]3O[C@@H](n4ccc(NC(=O)OCc5ccccc5)nc4=O)C(F)(F)[C@@H]3O)C(O)C2(F)F)c(=O)n1 (stereo in doubt)	37.28

Q. Could you tell me which Relative tumor proliferation rate (T/C %) is on file for CCCCOC(=O)Nc1ccn([C@H]2O[C@@H](COC(=O)CCC(=O)OC[C@H]3O[C@@H](n4ccc(NC(=O)OCCCC)nc4=O)C(F)(F)[C@@H]3O)[C@H](O)C2(F)F)c(=O)n1 (stereo in doubt) [Compound D2] ?
A. 34.57
